# measured-target: recombinant protein containing hST2 extracellular domain with human antibody heavy chain Fc tag (hST2-ECD-hFc) (human)
# Sequence (chain, as listed by the source limits assumed): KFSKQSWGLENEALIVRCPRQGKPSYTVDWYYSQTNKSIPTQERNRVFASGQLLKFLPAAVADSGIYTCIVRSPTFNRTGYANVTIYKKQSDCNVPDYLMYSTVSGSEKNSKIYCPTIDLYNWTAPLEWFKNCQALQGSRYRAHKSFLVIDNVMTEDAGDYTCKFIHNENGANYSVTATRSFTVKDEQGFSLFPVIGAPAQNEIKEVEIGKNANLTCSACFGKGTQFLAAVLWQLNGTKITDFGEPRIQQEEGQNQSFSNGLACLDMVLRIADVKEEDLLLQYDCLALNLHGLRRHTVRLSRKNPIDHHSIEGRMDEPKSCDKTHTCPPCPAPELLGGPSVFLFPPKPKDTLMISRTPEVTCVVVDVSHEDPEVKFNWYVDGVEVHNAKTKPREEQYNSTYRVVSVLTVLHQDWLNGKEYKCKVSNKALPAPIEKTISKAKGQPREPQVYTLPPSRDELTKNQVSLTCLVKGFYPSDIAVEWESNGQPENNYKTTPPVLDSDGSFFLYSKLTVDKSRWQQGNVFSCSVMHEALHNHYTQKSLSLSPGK
# assay-procedure: competition ELISA, coated hST2-ECD-hFc, antibody then biotin-labeled hIL33 Avitag (competitor)
pIC50: −log10 of the molar value.
quantity: pIC50

1) Humanized 31C8-1.1 (antibody, human IgG2, kappa, V domains shown, also called hz31C8-1.1; hz31C81-1.1) VH: EVQLVQSGAEVKKPGATVKISCKASGYIFIDSEMHWVQQAPGKGLEWMGAIDPETGDTVYAEKFQGRVTITADKSSSTAYMELSSLRSEDTAVYYCTGSTTDYYFAYWGQGTLVTVSS VL: DIQMTQSPSSLSASVGDRVTITCRSSKSLLHSNGIIYLYWYQQKPGKAPKLLIYQLSNLASGVPSRFSSSGSGTDFTLTISSLQPEDFATYYCAQNLELPFTFGQGTKVEIKR; 8.72
2) GSK3772847 (antibody STLM208 in CN104411333, prepared in-house) (antibody, human IgG2, kappa, V domains shown, Control anti-ST2 antibody) VH: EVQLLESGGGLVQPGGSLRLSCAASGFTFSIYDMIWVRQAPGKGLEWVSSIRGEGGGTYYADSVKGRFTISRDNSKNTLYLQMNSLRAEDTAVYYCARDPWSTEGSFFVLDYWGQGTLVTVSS VL: EIVLTQSPATLSLSPGERATLSCRASQSVDDDLAWYQQKPGQAPRLLIYDASNRATGIPARFSGSGSGTDFTLTISSLEPEDFAVYYCQQYITAPLTFGQGTKVEIKR; 8.60
3) Chimeric 31C8 (antibody, human IgG2, kappa, V domains shown, also called xi31C8) VH: QVQLQQSGPELVRPGASVTLSCKASGYIFIDSEMHWVKQTPVHGLEWIGAIDPETGDTVYNQKFKGKATLTADKSSSTASMELSSLTSEDSAVYYCTGSTTDYYFAYWGQGTTLTVSS VL: DIVMTQAAFSNPVTLGTSASISCRSSKSLLHSNGIIYLYWYLQKPGQSPQLLIYQMSNLASGVPDRFSSSGSGTDFTLRISRVEAEDVGVYYCAQNLELPFTFGSGTKLEIKR; 8.71
